# maps each entry to its EC50
- targetSystem: human mAChR M1 (Homo sapiens, UniProt P11229)
- Construct: host or cells: CHO-K1 cells (ATCC), stably transfected using Lipofectamine2000
- experiment: mAChR M1 cell-based functional assay (calcium mobilization), PAM activity: increase in the EC20 acetylcholine response
- conditionsUsed: CHO-K1 cells expressing hM1; potentiation of EC20 acetylcholine response

>>> recordedmeasurement("O=C(N[C@H]1CCCCC[C@@H]1O)c1cn(Cc2ccc(-n3cccn3)cc2)c(=O)c2nccnc12")
"≥ 10 µM"
>>> recordedmeasurement("Cc1cn2c(=O)n(Cc3ccc(-n4cccn4)cc3)cc(C(=O)N[C@H]3CCCC[C@@H]3O)c2n1")
"≥ 10 µM"
>>> recordedmeasurement("Cn1cc(-c2ccc(Cn3cc(C(=O)NCC(O)C(F)(F)F)c4nccnc4c3=O)c(F)c2)cn1 (stereo not shown)")
"≥ 10 µM"

Turning now to a further compound:
## Task Which value of EC50 has been reported for `Cn1cc(-c2ccc(Cn3cc(C(=O)NC4CC5(COC5)C4)c4occc4c3=O)c(F)c2)cn1` in the records?
## Result > 10 µM

---

- targetSystem: human mAChR M1 (Homo sapiens, UniProt P11229)
- Construct: host or cells: CHO-K1 cells (ATCC), stably transfected using Lipofectamine2000
- Sequence (P11229 1-460): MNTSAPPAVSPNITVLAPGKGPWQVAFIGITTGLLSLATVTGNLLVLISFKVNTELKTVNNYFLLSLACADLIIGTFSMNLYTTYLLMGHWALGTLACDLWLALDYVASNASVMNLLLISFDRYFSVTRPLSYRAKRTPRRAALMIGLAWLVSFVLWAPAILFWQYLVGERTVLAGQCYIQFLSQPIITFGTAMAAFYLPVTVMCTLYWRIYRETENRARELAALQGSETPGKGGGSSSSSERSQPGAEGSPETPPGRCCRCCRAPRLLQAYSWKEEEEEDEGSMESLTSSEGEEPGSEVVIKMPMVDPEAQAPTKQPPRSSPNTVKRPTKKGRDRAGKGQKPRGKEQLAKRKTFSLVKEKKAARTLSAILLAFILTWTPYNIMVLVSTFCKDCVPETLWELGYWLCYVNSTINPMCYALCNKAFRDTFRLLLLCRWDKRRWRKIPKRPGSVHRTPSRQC
- experiment: mAChR M1 cell-based functional assay (calcium mobilization), PAM activity: increase in the EC20 acetylcholine response
- conditionsUsed: CHO-K1 cells expressing hM1; potentiation of EC20 acetylcholine response
- Protocol: Chinese hamster ovary (CHO-K1) cells stably expressing rat (r)M1 were purchased from the American Type Culture Collection and cultured according to their indicated protocol. […] Calcium flux was measured using the Functional Drug Screening System (FDSS) 6000 (Hamamatsu Corporation, Tokyo, Japan) as an increase in the fluorescent static ratio. […] Agonist activity was analyzed as a concentration-dependent increase in calcium mobilization upon compound addition. […]
measurementName: EC50 (µM)

Completed entries (count: 4):
>>> recordedmeasurement("Cn1nccc1-c1ccc(Cn2cc(C(=O)N[C@H]3CCOC[C@@H]3O)c3nccn3c2=O)c(F)c1 [Compound B31]")
1.13
>>> recordedmeasurement("Cn1cc(-c2ccc(Cn3cc(C(=O)N[C@@H]4CC[C@H]4O)c4ncccc4c3=O)c(F)c2)cn1 [Compound A9]")
5.87
>>> recordedmeasurement("Cn1cc2c(-c3cc(F)c(Cn4cc(C(=O)NC5CC6(COC6)C5)c5occc5c4=O)c(F)c3)cccc2n1 [Compound D24]")
2.48
>>> recordedmeasurement("Cn1cc2c(-c3cc(F)c(Cn4cc(C(=O)N[C@H]5CCOC[C@@H]5O)c5nccn5c4=O)c(F)c3)cccc2n1 [Compound B18]")
0.093

I = Cn1cc2c(-c3cc(F)c(Cn4cc(C(=O)N[C@H]5CCCCC[C@@H]5O)c5sccc5c4=O)c(F)c3)cccc2n1 [Compound D33]
II = Cn1cc2c(-c3cc(F)c(Cn4cc(C(=O)N[C@H]5CCCC[C@@H]5O)c5occc5c4=O)c(F)c3)cccc2n1 [Compound D19]
## Task Rank I against II by their EC50 values and give the higher one. Please reply using the label of the selected record.
## Result I
